TEST SYSTEM: Delta-type opioid receptor (Homo sapiens)
ASSAY PROTOCOL: Inhibition of DOP (unknown origin)
pIC50: −log10 of the molar value.
Measured pIC50 accompanies every entry in the list below.

Answered cases to consult:
{"columns": ["COMPOUND", "TEST SYSTEM", "RESULT"],
 "data": [
  ["CC[C@@H]1CN2CCc3c([nH]c4cccc(OC)c34)[C@H]2C[C@@H]1/C(=C\\OC)C(=O)OC", "Delta-type opioid receptor (Homo sapiens)", "< 5.00"],
  ["CC[C@@H]1CN2CC[C@]3(O)c4c(cccc4OC)NC3[C@@H]2C[C@@H]1/C(=C\\OC)C(=O)OC (stereo not given in full)", "Delta-type opioid receptor (Homo sapiens)", 5.60],
  ["CC[C@H]1CN2CCc3c([nH]c4cccc(OC)c34)[C@@H]2C[C@@H]1/C(=C\\OC)C(=O)OC", "Delta-type opioid receptor (Homo sapiens)", "< 5.00"],
  ["C=C[C@H]1CN2CCc3c([nH]c4cccc(OC)c34)[C@@H]2C[C@@H]1/C(=C\\OC)C(=O)OC", "Delta-type opioid receptor (Homo sapiens)", "< 5.00"]
]}

Okay, next one:
Prompt: Answer with the recorded pIC50 of "CC[C@@H]1CN2CCc3c([nH]c4cccc(OC)c34)[C@@H]2C[C@@H]1/C(=C\OC)C(=O)OC" only.
Response: < 5.00

---

ASSAY PROTOCOL: Stability in human plasma assessed as half life
Assay type: ADME, cell-free
OBSERVABLE: half-life (h)
Write the value in h as a bare number.

Prompt: Answer with the recorded half-life of "NC(=O)CNC(=O)[C@@H]1CCC(=O)NCCCC[C@@H](NC(=O)[C@@H](N)Cc2ccc(O)cc2)C(=O)N[C@@H](Cc2c[nH]c3ccccc23)C(=O)N[C@@H](Cc2ccccc2)C(=O)N1" only.
Response: 150

---

TEST SYSTEM: Mu-type opioid receptor (Homo sapiens, UniProt P35372)
Sequence (P35372 whole entry): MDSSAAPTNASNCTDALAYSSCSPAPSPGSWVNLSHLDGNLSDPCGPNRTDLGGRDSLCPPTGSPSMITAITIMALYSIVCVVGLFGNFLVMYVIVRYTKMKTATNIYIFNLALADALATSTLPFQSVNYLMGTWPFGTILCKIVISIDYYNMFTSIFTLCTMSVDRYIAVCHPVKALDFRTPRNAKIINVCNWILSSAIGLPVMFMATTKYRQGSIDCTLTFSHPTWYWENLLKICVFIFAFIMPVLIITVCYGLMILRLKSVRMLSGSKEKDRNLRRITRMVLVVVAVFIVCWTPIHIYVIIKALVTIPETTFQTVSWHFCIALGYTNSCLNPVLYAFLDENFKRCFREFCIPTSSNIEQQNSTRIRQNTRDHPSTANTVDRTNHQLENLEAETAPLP
ASSAY PROTOCOL: Inhibition of MOP (unknown origin)
OBSERVABLE: IC50 (nM)
Write the value in nM as a bare number.

Prompt: Answer with the recorded IC50 of "C=C[C@H]1CN2CCc3c([nH]c4cccc(OC)c34)[C@@H]2C[C@@H]1/C(=C\OC)C(=O)OC" only.
Response: 2200

---

TEST SYSTEM: Kappa-type opioid receptor (Homo sapiens, UniProt P41145)
Sequence (P41145 whole entry): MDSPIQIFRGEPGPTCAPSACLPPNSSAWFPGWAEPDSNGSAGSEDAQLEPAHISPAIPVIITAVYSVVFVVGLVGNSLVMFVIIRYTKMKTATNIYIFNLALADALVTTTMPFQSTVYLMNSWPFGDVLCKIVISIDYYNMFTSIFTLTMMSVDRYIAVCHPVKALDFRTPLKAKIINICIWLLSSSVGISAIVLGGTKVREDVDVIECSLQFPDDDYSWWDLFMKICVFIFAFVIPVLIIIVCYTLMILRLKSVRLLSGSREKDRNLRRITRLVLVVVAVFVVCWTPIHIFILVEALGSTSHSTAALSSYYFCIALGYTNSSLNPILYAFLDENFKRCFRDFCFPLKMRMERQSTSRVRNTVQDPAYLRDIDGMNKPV
ASSAY PROTOCOL: Agonist activity at KOP (unknown origin) assessed as inhibition of forskolin-induced cAMP accumulation
Assay type: functional
OBSERVABLE: EC50

Prompt: Answer with EC50 of "COC(=O)[C@@H]1C[C@H](OC(=O)c2ccc(CO)cc2)C(=O)[C@H]2[C@@]1(C)CC[C@H]1C(=O)O[C@H](c3ccoc3)C[C@]21C" measured for Kappa-type opioid receptor (Homo sapiens, UniProt P41145).
Response: > 10 µM

---

ASSAY PROTOCOL: Stability in mouse serum assessed as half life
Type: ADME, cell-free
Measured half-life accompanies every entry in the list below.

Answered cases to consult:
{"columns": ["COMPOUND", "RESULT"],
 "data": [
  ["NC(=O)[C@H](Cc1ccccc1)NC(=O)[C@H](Cc1ccccc1)NC(=O)[C@@H]1CCCN1C(=O)[C@@H](N)Cc1ccc(O)cc1 [ENDOMORPHIN 2]", "8.2 min"],
  ["CC(C)(C)OC(=O)[C@H](Cc1ccccc1)NC(=O)[C@H](Cc1ccccc1)NC(=O)[C@@H]1CCCN1C(=O)[C@@H](N)Cc1ccc(O)cc1", "46 min"],
  ["C=C(C(=O)O)[C@@H](N)c1ccccc1", "≥ 300 min"]
]}

Prompt: Answer with the recorded half-life of "C=C(C(N)=O)[C@@H](NC(=O)[C@H](Cc1c[nH]c2ccccc12)NC(=O)[C@@H](C)N(C)C(=O)[C@@H](N)Cc1c(C)cc(O)cc1C)c1ccccc1" only.
Response: ≥ 300 min

---

Measured pKi accompanies every entry in the list below.
TEST SYSTEM: Delta-type opioid receptor (Homo sapiens, UniProt P41143)
Sequence (P41143 whole entry): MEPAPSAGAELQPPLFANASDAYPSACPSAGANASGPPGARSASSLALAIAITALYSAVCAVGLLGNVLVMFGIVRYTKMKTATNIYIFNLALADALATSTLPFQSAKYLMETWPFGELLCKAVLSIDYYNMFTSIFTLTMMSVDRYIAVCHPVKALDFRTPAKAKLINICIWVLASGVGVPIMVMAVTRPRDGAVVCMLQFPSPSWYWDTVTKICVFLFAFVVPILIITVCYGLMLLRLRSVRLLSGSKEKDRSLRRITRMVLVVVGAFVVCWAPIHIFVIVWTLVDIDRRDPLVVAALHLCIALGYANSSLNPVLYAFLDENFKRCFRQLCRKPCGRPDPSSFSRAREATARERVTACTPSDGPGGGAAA
ASSAY PROTOCOL: Displacement of [3H]DPDPE from DOP (unknown origin) stably expressed in HEK293 cells by liquid scintillation counter analysis
Format: cell-based
// pKi is dimensionless: -log10 of concentration (M)

Answered cases to consult:
{"columns": ["SMILES TEXT", "TEST SYSTEM", "READOUT NUMBER"],
 "data": [
  ["C=C(C(N)=O)[C@@H](NC(=O)[C@H](Cc1ccccc1)NC(=O)[C@@H](C)N(C)C(=O)[C@@H](N)Cc1c(C)cc(O)cc1C)c1ccco1", "Delta-type opioid receptor (Homo sapiens, UniProt P41143)", 7.33],
  ["C=C(C(N)=O)[C@@H](NC(=O)[C@H](Cc1ccccc1)NC(=O)[C@@H](C)N(C)C(=O)[C@@H](N)Cc1ccc(O)cc1)c1ccco1", "Delta-type opioid receptor (Homo sapiens, UniProt P41143)", 5.35]
]}

Okay, next one:
Prompt: Answer with the recorded pKi of "C=C(C(N)=O)[C@@H](NC(=O)[C@H](Cc1c[nH]c2ccccc12)NC(=O)[C@@H](C)N(C)C(=O)[C@@H](N)Cc1c(C)cc(O)cc1C)c1ccccc1" only.
Response: 7.43

---

TEST SYSTEM: UniProt:P35372
ASSAY PROTOCOL: Agonist activity at MOP in human SH-SY5Y cells assessed as forskolin stimulated cAMP accumulation incubated for 30 mins by Biotrak-EIA kit method
Type: functional, cell-based
Square brackets hold non-standard residues; d marks the D form. Peptide text beside a SMILES is read from it. ξ: configuration not given here. Dmt = Cc1cc(O)cc(C)c1C[C@H](N)C(=O)O; ξGly(octyl) = CCCCCCCCC(N)C(=O)O
Measured EC50 accompanies every entry in the list below.
Write the value in nM as a bare number.

{"columns": ["COMPOUND", "EC50 [nM]"],
 "data": [
  ["CCCCCCCCC(N)C(=O)N[C@@H](Cc1c(C)cc(O)cc1C)C(=O)N1CCC[C@H]1C(=O)N[C@@H](Cc1c[nH]c2ccccc12)C(=O)N[C@@H](Cc1ccccc1)C(N)=O (some centres not stated) (H-[ξGly(octyl)][Dmt]PWF-NH2)", 1.3]
]}

Okay, next one:
Prompt: Answer with the recorded EC50 of CCCCCCCCC(N)C(=O)N[C@@H](Cc1ccc(O)cc1)C(=O)N1CCC[C@H]1C(=O)N[C@@H](Cc1c[nH]c2ccccc12)C(=O)N[C@@H](Cc1ccccc1)C(N)=O (some centres not stated) (H-[ξGly(octyl)]YPWF-NH2) only.
Response: 31.4

---

TEST SYSTEM: UniProtKB P35372
ASSAY PROTOCOL: Agonist activity at human MOP expressed in CHO-K1 cell membrane assessed as [35S]GTPgammaS binding
Assay type: functional, cell membranes
OBSERVABLE: EC50 (nM)
Write the value in nM as a bare number.

Answered cases to consult:
{"columns": ["SMILES TEXT", "QUANTITY UNIT", "EC50"],
 "data": [
  ["NC(=O)[C@@H]1CCC(=O)NCCCC[C@@H](NC(=O)[C@@H](N)Cc2ccc(O)cc2)C(=O)N[C@@H](Cc2c[nH]c3ccccc23)C(=O)N[C@@H](Cc2ccccc2)C(=O)N1", "nM", 0.43],
  ["NC(=O)[C@@H]1CC(=O)NCCCC[C@@H](NC(=O)[C@@H](N)Cc2ccc(O)cc2)C(=O)N[C@@H](Cc2c[nH]c3ccccc23)C(=O)N[C@@H](Cc2ccccc2)C(=O)N1", "nM", 0.94],
  ["NC(=O)CNC(=O)[C@@H]1CCC(=O)NCCCC[C@@H](NC(=O)[C@@H](N)Cc2ccc(O)cc2)C(=O)N[C@@H](Cc2c[nH]c3ccccc23)C(=O)N[C@@H](Cc2ccccc2)C(=O)N1", "nM", 1.01]
]}

Prompt: Answer with the recorded EC50 of "NC(=O)[C@@H]1CCCCNC(=O)CC[C@@H](NC(=O)[C@@H](N)Cc2ccc(O)cc2)C(=O)N[C@@H](Cc2ccccc2)C(=O)N[C@@H](Cc2ccccc2)C(=O)N1" only.
Response: 1.5

---

Tested on: Mus musculus
ASSAY PROTOCOL: Antinociceptive activity in icv dosed C57BL/6J mouse assessed as tail withdrawal latency from warm water
Assay type: functional
Measured ED50 accompanies every entry in the list below.
Write the value in nmol as a bare number.

Answered cases to consult:
{"columns": ["SMILES TEXT", "QUANTITY UNIT", "READOUT NUMBER"],
 "data": [
  ["O=C1N[C@H](Cc2ccccc2)C(=O)N[C@H](Cc2c[nH]c3ccccc23)C(=O)N[C@@H](Cc2ccccc2)C(=O)N2CCC[C@H]12", "nmol", 0.56],
  ["C[C@H]1NC(=O)[C@H](Cc2ccccc2)NC(=O)[C@H]2CCCN2C(=O)[C@H](Cc2ccccc2)NC1=O", "nmol", 0.28],
  ["O=C1N[C@H](Cc2ccccc2)C(=O)N2CCC[C@@H]2C(=O)N[C@H](Cc2ccccc2)C(=O)N[C@H]1Cc1c[nH]c2ccccc12", "nmol", 1],
  ["C[C@@H]1C(=O)N[C@@H](Cc2ccccc2)C(=O)N[C@@H](Cc2c[nH]c3ccccc23)C(=O)N[C@@H](Cc2ccccc2)C(=O)N1C", "nmol", 2.43],
  ["C[C@@H]1C(=O)N[C@@H](Cc2ccccc2)C(=O)N[C@H](Cc2c[nH]c3ccccc23)C(=O)N[C@@H](Cc2ccccc2)C(=O)N1C", "nmol", 4.19]
]}

Okay, next one:
Prompt: Answer with the recorded ED50 of "O=C1N[C@@H](Cc2ccccc2)C(=O)N2CCC[C@@H]2C(=O)N[C@H](Cc2ccccc2)C(=O)N[C@H]1Cc1c[nH]c2ccccc12" only.
Response: 20.4
